Target entity: His6-p37AUF1(1-239) (human, UniProt Q14103-4 1-239)
Sequence (Q14103 other isoform, or with tags, fused parts or gaps): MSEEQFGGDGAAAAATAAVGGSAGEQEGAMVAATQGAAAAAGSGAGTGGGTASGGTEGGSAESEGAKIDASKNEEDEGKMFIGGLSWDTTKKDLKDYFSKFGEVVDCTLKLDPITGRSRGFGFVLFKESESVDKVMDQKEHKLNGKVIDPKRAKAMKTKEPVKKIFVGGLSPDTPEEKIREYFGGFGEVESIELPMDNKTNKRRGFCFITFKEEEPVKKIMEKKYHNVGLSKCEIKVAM
Method: fluorescence anisotropy; first site (Kd1), 50 mM KCl; Anisotropy: 10 mM Tris-HCl pH 8.0, 100 mM KCl (50 mM for Fl-ARE2), 0.5 mM EDTA, 0.1 ug/ul acetylated BSA, 1 ug/ul heparin, 2 mM DTT, 25 C, RNA 0.2-0.4 nM; EMSA: same with 100 mM KCl, 10% glycerol, 1 nM RNA, on ice, UV crosslinked
Assay conditions: protein: recombinant; chain copies: 2; label: 5' fluorescein
pKd: −log10 of the molar value.
Parameter: pKd

GUGAUUAUUUAUUAUUUAUUUAUUAUUUAUUUAUUUAG (ssRNA) [Fl-ARE2] | 6.81
